System: 883617-216-R-J1-PDC complex spheroid viability;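 also: exposure lasted seven days after three days of spheroid growth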
Assay: Anticancer human tumor 883617-216-R-J1-PDC patient-derived bladder carcinoma cell line growth inhibition
Settings: second compound 0.316 µM; first compound 0.00316 µM; active compounds read low
So basically: is viability, T/C under 70%? Then satisfied. Not under? Then not satisfied.

1) CC(C)CC(NC(=O)CNC(=O)c1cc(Cl)ccc1Cl)B1OC(=O)CC(CC(=O)O)(C(=O)O)O1 (centres undefined) + NC1CC1c1ccc(-c2cccc(O)c2)cc1	satisfied
2) Cn1ncnc1C1c2n[nH]c(=O)c3cc(F)cc(c23)NC1c1ccc(F)cc1 (centres undefined) + NC1CC1c1ccc(-c2cccc(O)c2)cc1	not satisfied
3) CC1COCCN1c1cc(-c2ccnn2C)c2ccnc(-c3ccn[nH]3)c2n1 (centres undefined) + NC1CCC(NC2CC2c2ccccc2)CC1	not satisfied
4) COc1cc(Nc2ncc3c(n2)-c2ccc(Cl)cc2C(c2c(F)cccc2OC)=NC3)ccc1C(=O)O + NC1CC1c1ccc(-c2cccc(O)c2)cc1	not satisfied
5) CC(C)CC(NC(=O)C(Cc1ccccc1)NC(=O)c1cnccn1)B(O)O (centres undefined) + NC1CCC(NC2CC2c2ccccc2)CC1	satisfied
6) CC[C@@]1(O)C(=O)OCc2c1cc1n(c2=O)Cc2cc3c(CN(C)C)c(O)ccc3nc2-1 + NC1CC1c1ccc(-c2cccc(O)c2)cc1	satisfied
7) CC[C@@]1(O)C(=O)OCc2c1cc1n(c2=O)Cc2cc3c(CN(C)C)c(O)ccc3nc2-1 + NC1CCC(NC2CC2c2ccccc2)CC1	satisfied
8) CC(C)CC(NC(=O)CNC(=O)c1cc(Cl)ccc1Cl)B1OC(=O)CC(CC(=O)O)(C(=O)O)O1 (centres undefined) + NC1CCC(NC2CC2c2ccccc2)CC1	not satisfied

Identify whether the molecule O=C(C=Cn1cnc(-c2cc(C(F)(F)F)cc(C(F)(F)F)c2)n1)NNc1cnccn1 + NC1CCC(NC2CC2c2ccccc2)CC1 records viability, T/C below 70%.
not satisfied
